Data origin, for the record: PubChem BioAssay (Tox21)

- assay_remarks: qHTS assay to identify small molecule antagonists of the estrogen receptor beta (ER-beta) signaling pathway - cell viability counter screen (AID 1259382); further: nearly all actives have a fitted effect of over 55% in size
- condition_parameters: ER-beta-UAS-bla HEK293T viability, CellTiter-Glo luminescence, 16 h; series mostly up to 92.4 µM
Inconclusive results are not listed. Calls of active or inactive are those of the source. The call rests on the fitted dose curve; in most records, active means well fitted cell-killing curve with a large enough effect in the repeat runs; inconclusive means weak or mixed curves; inactive means flat fitted curve, though single readings scatter.
Thanks in advance; please answer with one of these: active, inactive

Ask: // param item: CCCCCCCCCCCCCCCS(=O)(=O)Oc1ccccc1 ; yields the recorded call
Result: inactive

Ask: // param item: CCc1cc(SCc2sc(-c3ccc(C(F)(F)F)cc3)nc2CN2CCN(c3ccc(OC)cc3)CC2)ccc1OCC(=O)O ; yields the recorded call
Result: active

Ask: // param item: CCC(C)(C)C1CCCCC1OC(C)=O (stereo not drawn) ; yields the recorded call
Result: inactive

Ask: // param item: Cc1ccc(-n2nc(C(C)(C)C)cc2NC(=O)Nc2ccc(OCCN3CCOCC3)c3ccccc23)cc1 ; yields the recorded call
Result: inactive

Ask: // param item: Fc1ccc([C@@H]2CCNC[C@H]2COc2ccc3c(c2)OCO3)cc1 ; yields the recorded call
Result: active

Ask: // param item: N#CC1(c2ccc(F)cc2)CCC(=O)CC1 ; yields the recorded call
Result: inactive

Ask: // param item: Cc1cccc2c1cc1ccc3cccc4ccc2c1c34 ; yields the recorded call
Result: inactive

Ask: // param item: C[C@]12CCC(=O)C=C1CC[C@@H]1[C@@H]2[C@@H](O)C[C@@]2(C)[C@H]1CC[C@]2(O)C(=O)COC(=O)CCC(=O)O ; yields the recorded call
Result: inactive

Ask: // param item: Oc1cccc2cc3cccc(O)c3c(O)c12 ; yields the recorded call
Result: inactive

Ask: // param item: OCCN1CCN(CC/C=C2/c3ccccc3Sc3ccc(C(F)(F)F)cc32)CC1 ; yields the recorded call
Result: active

Ask: // param item: COC(=O)c1cc(Cl)ccc1OC ; yields the recorded call
Result: inactive

Ask: // param item: Oc1cccc(-c2c3nc(c(-c4cccc(O)c4)c4ccc([nH]4)c(-c4cccc(O)c4)c4nc(c(-c5cccc(O)c5)c5ccc2[nH]5)CC4)C=C3)c1 ; yields the recorded call
Result: active

====

- assay_remarks: A CellTox Green Cytotoxicity Assay to monitor cytotoxicity in HEK293 cells - 16 hour (AID 1224888); further: nearly all actives have a fitted effect of over 35% in size
- condition_parameters: CellTox Green fluorescence; series mostly up to 76.8 µM
Inconclusive results are not listed. Active and inactive are the calls of the source. The call rests on the fitted dose curve; in most records, active means well fitted activation curve with a large enough effect in the repeat runs; inconclusive means weak or mixed curves; inactive means flat fitted curve, though single readings scatter.
Thanks in advance; please answer with one of these: active, inactive

Examples with answers:
INSERT INTO assay_data (compound, answer_label) VALUES
  ('C/C=C1/C(=O)C[C@H]2[C@@H]3CCC4=CC(=O)CC[C@]4(C)[C@H]3CC[C@]12C', 'inactive'),
  ('COc1c(C)c2c(c(O)c1C/C=C(\C)CCC(=O)O)C(=O)OC2', 'inactive'),
  ('C[n+]1cc2c3c(ccc2c2ccc4cc5c(cc4c21)OCO5)OCO3', 'active'),
  ('O=[N+]([O-])c1ccccc1Nc1ccccc1', 'inactive'),
  ('C=CC(=O)OCCn1c(=O)n(CCOC(=O)C=C)c(=O)n(CCOC(=O)C=C)c1=O', 'inactive');

Ask: // param item: CCCCCCOC(=O)c1ccc(O)cc1 ; yields the recorded call
Result: inactive

Ask: // param item: N#CSc1ccc(N)c([N+](=O)[O-])c1 ; yields the recorded call
Result: inactive

Ask: // param item: O=C(Nc1ccc(Oc2ccc(Cl)cc2)c(Cl)c1)c1cc(I)cc(I)c1O ; yields the recorded call
Result: inactive

Ask: // param item: CCOC(=O)O[C@H](C)OC(=O)c1ccc2c(c1)cc(C(=O)NC1CCN(C(C)C)CC1)n2Cc1cc(-c2ccc(Cl)s2)on1 ; yields the recorded call
Result: active

Ask: // param item: O=C(Nc1cccc(C(F)(F)F)c1)c1cc(Br)cc(Br)c1O ; yields the recorded call
Result: inactive

Ask: // param item: CC(C)=CCOc1ccc(/C=C/C(=O)c2ccc(OCC=C(C)C)cc2OCC(=O)O)cc1 ; yields the recorded call
Result: inactive

Ask: // param item: Cc1[nH]nc2c1N=C(c1ccccc1Cl)c1cc([N+](=O)[O-])ccc1N2 ; yields the recorded call
Result: inactive

Ask: // param item: CCCCC(CC)CN=C(N)NC(N)=NCCCCCCN=C(N)NC(N)=NCC(CC)CCCC (stereo not given) ; yields the recorded call
Result: active

Ask: // param item: Cc1cc(C2CCCCC2)n(O)c(=O)c1 ; yields the recorded call
Result: inactive

Ask: // param item: C[C@]12CCC(=O)C=C1CC[C@@H]1[C@@H]2[C@@H](O)C[C@@]2(C)[C@H]1CC[C@]2(O)C(=O)COC(=O)CCC(=O)O ; yields the recorded call
Result: inactive

Ask: // param item: NC(=O)CC[C@@H]1NC(=O)[C@H](Cc2ccccc2)NC(=O)[C@H](Cc2ccc(O)cc2)NC(=O)CCSSC[C@@H](C(=O)N2CCC[C@H]2C(=O)N[C@@H](CCCN=C(N)N)C(=O)NCC(N)=O)NC(=O)[C@H](CC(N)=O)NC1=O ; yields the recorded call
Result: inactive

Ask: // param item: CCOc1nc2cccc(C(=O)OC(C)OC(=O)OC3CCCCC3)c2n1Cc1ccc(-c2ccccc2-c2nn[nH]n2)cc1 (stereo not given) ; yields the recorded call
Result: active

Ask: // param item: COc1cc(/C=C/C(=O)O[C@H]2CC[C@]34C[C@]35CC[C@]3(C)[C@@H]([C@H](C)CCC=C(C)C)CC[C@@]3(C)[C@@H]5CC[C@H]4C2(C)C)ccc1O ; yields the recorded call
Result: inactive

Ask: // param item: CC(C)n1nc(-c2cc3cc(O)ccc3[nH]2)c2c(N)ncnc21 ; yields the recorded call
Result: inactive

Ask: // param item: CCCCCCCCCCCC(=O)NCCCN(C)C ; yields the recorded call
Result: active

Ask: // param item: Oc1cccc2cc3cccc(O)c3c(O)c12 ; yields the recorded call
Result: inactive
